Data credit: paper PMC6631792

Average Weight of Animals in Grams after Days 12 by entry:
assay: Average animal weight in MCF-7 mouse xenograft model; format: in vivo; settings: nude mice with MCF-7 xenograft, i.p., day 12
Please respond with the number in Grams and leave the unit unwritten.

// solved cases for Average Weight of Animals in Grams after Days 12 follow
>  <compound>
O=C(Cn1cnc2scc(-c3cccs3)c2c1=O)NN=Cc1ccc(Cl)cc1

>  <measuredResult>
27.1

$$$$
>  <compound>
O=C(Cn1cnc2scc(-c3cccs3)c2c1=O)NN1C(=O)CSC1c1ccc(Cl)cc1 (stereo not shown)

>  <measuredResult>
23.7

$$$$
>  <compound>
COc1cccc(C=NNC(=O)Cn2cnc3scc(-c4cccs4)c3c2=O)c1OC

>  <measuredResult>
23.5

$$$$
>  <compound>
NC1=CC(N)N(NC(=O)Cn2cnc3scc(-c4cccs4)c3c2=O)C=C1 (stereo not shown)

>  <measuredResult>
25.7

$$$$
>  <compound>
O=C(Cn1cnc2scc(-c3cccs3)c2c1=O)NN1C(=O)CSC1=Nc1ccccc1

>  <measuredResult>
26.4

$$$$

Attention now turns to another entry.
Query :: Quote Average Weight of Animals in Grams after Days 12 reported for CC(=O)NNC(=O)Cn1cnc2scc(-c3cccs3)c2c1=O please.
Result :: 25.3
